Values compiled from patent US20200031825A1.

Target: hSTING-AQ (Homo sapiens, UniProt Q86WV6, G230A/R293Q)
Sequence (Q86WV6 whole entry G230A/H232R/R293Q): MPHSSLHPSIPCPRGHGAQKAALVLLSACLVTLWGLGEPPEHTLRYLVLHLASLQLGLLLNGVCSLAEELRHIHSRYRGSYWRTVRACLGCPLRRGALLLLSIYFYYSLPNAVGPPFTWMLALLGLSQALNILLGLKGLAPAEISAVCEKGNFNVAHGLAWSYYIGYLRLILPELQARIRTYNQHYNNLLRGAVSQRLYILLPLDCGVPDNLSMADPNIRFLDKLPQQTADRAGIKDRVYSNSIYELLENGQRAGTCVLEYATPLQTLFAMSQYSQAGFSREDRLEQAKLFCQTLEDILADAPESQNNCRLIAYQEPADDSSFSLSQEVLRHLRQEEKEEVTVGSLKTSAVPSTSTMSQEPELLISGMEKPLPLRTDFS
Test: Cellular Functional Assay I: ISRE-SEAP reporter, hSTING-AQ allele
Catalogue of EC50 readings, one per entry.

CCn1nc(C)cc1C(=O)Nc1nc2cc(C(N)=O)cnc2n1C/C=C/Cn1c(NC(=O)c2cc(C)nn2CC)nc2cc(C(N)=O)cc(OCCCN3CCCOCC3)c21: 1 to 500 nM
CCn1nc(C)cc1C(=O)Nc1nc2cc(C(N)=O)ccc2n1C/C=C/Cn1c(NC(=O)c2cc(C)nn2CC)nc2cc(C(N)=O)sc21: > 500 nM
CCn1nc(C)cc1C(=O)Nc1nc2cc(C(N)=O)cnc2n1C/C=C/Cn1c(NC(=O)c2cc(C)nn2CC)nc2cc(C(N)=O)cc(OC)c21: 1 to 500 nM
CCn1nc(C)cc1C(=O)Nc1nc2cc(C(N)=O)cnc2n1C/C=C/Cn1c(NC(=O)c2cc(C)nn2CC)nc2cc(C(N)=O)cnc21: > 500 nM
CCn1nc(C)cc1C(=O)Nc1nc2cc(C(N)=O)cnc2n1CCCCNC(=O)OC(C)(C)C: > 500 nM

Quote EC50 reported for CCn1nc(C)cc1C(=O)Nc1nc2cc(C(N)=O)cnc2n1C/C=C/CNC(=O)OCc1ccccc1 please.
> 500 nM

###

Target: hSTING-wt (Homo sapiens)
Sequence (Q86WV6 whole entry H232R): as the sequence (Q86WV6 whole entry G230A/H232R/R293Q) above, with A230G, Q293R counted along it
Test: Cellular Functional Assay I: ISRE-SEAP reporter in HEK-293T-Dual Null cells transfected with hSTING-wt
Settings: HEK-293T-Dual Null, hSTING-wt
assay_endpoint: EC50

Please review the entries below; each comes with its answer.
CCn1nc(C)cc1C(=O)Nc1nc2cc(C(N)=O)cnc2n1C/C=C/Cn1c(NC(=O)c2cc(C)nn2CC)nc2cc(C(N)=O)cc(OCCCNCCOC(F)F)c21 [Compound U]: 1 to 500 nM
CCn1nc(C)cc1C(=O)Nc1nc2cc(C(N)=O)sc2n1C/C=C/Cn1c(NC(=O)c2cc(C)nn2CC)nc2cc(C(N)=O)cc(OCCCNC)c21 [Compound Q]: 1 to 500 nM
CCn1nc(C)cc1C(=O)Nc1nc2cc(C(N)=O)sc2n1C/C=C/Cn1c(NC(=O)c2cc(C)nn2CC)nc2cc(C(N)=O)cc(OCCOC(F)F)c21 [Compound N]: < 1 nM
CCn1nc(C)cc1C(=O)Nc1nc2cc(C(N)=O)cnc2n1C/C=C/CNC(=O)OC(C)(C)C [Compound D]: > 500 nM

Below: the item to evaluate.
Please tell me the measured EC50 for CCn1nc(C)cc1C(=O)Nc1nc2cc(C(N)=O)cnc2n1C/C=C/Cn1c(NC(=O)c2cc(C)nn2CC)nc2cc(C(N)=O)cc(OCCCN3CCC[C@H]3COC(F)F)c21 [Compound Y] ; system: hSTING-wt (Homo sapiens).
< 1 nM

###

Target: hSTING-Q (Homo sapiens, UniProt Q86WV6, R293Q)
Sequence (Q86WV6 whole entry R293Q): as the sequence (Q86WV6 whole entry G230A/H232R/R293Q) above, with A230G, R232H counted along it
Experiment: Cellular Functional Assay I: ISRE-SEAP reporter, hSTING-Q allele
assay_endpoint: EC50

Would you please look over these solved cases?
CCn1nc(C)cc1C(=O)Nc1nc2cc(C(N)=O)sc2n1C/C=C/CNC(=O)OC(C)(C)C: > 500 nM
CCn1nc(C)cc1C(=O)Nc1nc2cc(C(N)=O)cnc2n1CCCCNC(=O)OC(C)(C)C: > 500 nM
CCn1nc(C)cc1C(=O)Nc1nc2cc(C(N)=O)cnc2n1C/C=C/CNC(=O)OCc1ccccc1: > 500 nM
CCn1nc(C)cc1C(=O)Nc1nc2cc(C(N)=O)cnc2n1C/C=C/Cn1c(NC(=O)c2cc(C)nn2CC)nc2cc(C(N)=O)cc(C)c21.Cl.Cl.Cl.Cl: 1 to 500 nM
CCn1nc(C)cc1C(=O)Nc1nc2cc(C(N)=O)cnc2n1C/C=C/Cn1c(NC(=O)c2cc(C)nn2CC)nc2cc(C(N)=O)cc(OCCCN3CCC[C@H]3COC(F)F)c21: 1 to 500 nM

We now examine a further compound.
Note down EC50 recorded for CCn1nc(C)cc1C(=O)Nc1nc2cc(C(N)=O)cnc2n1C/C=C/CNC(=O)OC(C)(C)C
> 500 nM
